# System Under Test: Histone acetyltransferase KAT5 (Homo sapiens, UniProt Q92993)
# Sequence (Q92993 whole entry): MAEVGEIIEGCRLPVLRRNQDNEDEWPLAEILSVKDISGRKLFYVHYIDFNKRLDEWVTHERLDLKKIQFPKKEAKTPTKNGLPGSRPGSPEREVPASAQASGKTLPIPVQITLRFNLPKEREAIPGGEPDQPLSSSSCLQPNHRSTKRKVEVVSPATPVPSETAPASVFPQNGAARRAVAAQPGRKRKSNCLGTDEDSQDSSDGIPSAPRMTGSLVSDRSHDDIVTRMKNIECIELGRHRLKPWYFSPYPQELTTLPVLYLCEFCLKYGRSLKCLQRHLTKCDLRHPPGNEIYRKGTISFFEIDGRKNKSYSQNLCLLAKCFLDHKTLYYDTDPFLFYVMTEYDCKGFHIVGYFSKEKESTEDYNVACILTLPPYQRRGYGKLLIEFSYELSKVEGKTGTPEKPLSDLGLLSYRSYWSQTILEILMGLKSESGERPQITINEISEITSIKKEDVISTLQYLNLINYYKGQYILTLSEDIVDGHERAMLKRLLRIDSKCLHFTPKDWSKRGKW
# Protocol Text: Inhibition of TIP60 (unknown origin) biotinylated H4 (1 to 25)-GSGSK peptide as substrate incubated for 1 hr in presence of acetyl-coA by AlphaLISA assay
pIC50: −log10 of the molar value.
Value Kind: pIC50

pIC50 for Histone acetyltransferase KAT5 (Homo sapiens, UniProt Q92993) with input COc1ccc(C2(C(=O)N3C[C@H](F)C[C@@H]3C(=O)Nc3ccc4[nH]ncc4n3)CCC(F)(F)CC2)cc1 equals < 4.30

---

# System Under Test: Histone acetyltransferase KAT2A (Homo sapiens, UniProt Q92830)
# Sequence (Q92830 whole entry): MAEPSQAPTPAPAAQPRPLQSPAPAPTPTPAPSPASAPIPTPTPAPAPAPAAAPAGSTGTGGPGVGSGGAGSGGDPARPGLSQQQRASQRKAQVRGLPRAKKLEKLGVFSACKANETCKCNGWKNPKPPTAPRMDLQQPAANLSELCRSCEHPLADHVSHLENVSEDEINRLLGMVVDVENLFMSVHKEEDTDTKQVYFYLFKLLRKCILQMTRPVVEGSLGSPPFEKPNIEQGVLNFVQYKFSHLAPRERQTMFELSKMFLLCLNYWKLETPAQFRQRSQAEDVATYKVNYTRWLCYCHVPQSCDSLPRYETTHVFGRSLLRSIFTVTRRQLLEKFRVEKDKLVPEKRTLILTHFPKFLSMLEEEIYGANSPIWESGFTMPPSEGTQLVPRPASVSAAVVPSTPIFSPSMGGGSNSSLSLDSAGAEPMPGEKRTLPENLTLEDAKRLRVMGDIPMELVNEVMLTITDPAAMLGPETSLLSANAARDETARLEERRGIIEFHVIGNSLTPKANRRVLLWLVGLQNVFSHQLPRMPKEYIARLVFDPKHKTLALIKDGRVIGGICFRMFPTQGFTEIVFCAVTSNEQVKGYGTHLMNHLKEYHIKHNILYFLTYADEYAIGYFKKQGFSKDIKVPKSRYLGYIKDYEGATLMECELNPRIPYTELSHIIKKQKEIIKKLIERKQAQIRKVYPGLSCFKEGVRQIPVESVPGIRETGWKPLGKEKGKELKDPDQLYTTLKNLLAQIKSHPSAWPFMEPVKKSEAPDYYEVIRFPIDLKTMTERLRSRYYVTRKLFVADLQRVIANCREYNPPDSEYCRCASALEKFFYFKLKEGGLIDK
# Protocol Text: Inhibition of GCN5 (unknown origin) biotinylated H3 (1 to […])-GGK peptide as substrate incubated for 1 hr in presence of acetyl-coA by AlphaLISA assay
Value Kind: IC50

Recorded result, COc1ccc(C2(C(=O)N3C[C@H](F)C[C@@H]3C(=O)Nc3ccc4[nH]ncc4n3)CCC(F)(F)CC2)cc1 , IC50: > 50 µM

These measurements were taken from ChEMBL document CHEMBL5316287.
